# target desc: OTU domain-containing protein 3 (Homo sapiens)
# method: Validation of screening hits, potency titration, in vitro enzymatic, OTU domain-containing protein 3 DUB inhibitors (AID 1645868)
# conditions used: purified OTUD3, ubiquitin-rhodamine cleavage fluorescence, 2 h
Activity calls are given as the source filed them.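 Rule for the calls: active = maximal percent inhibition of the deubiquitinase OTUD3 of at least 30% across the tested doses; inactive = the rest.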
Classes used: y = active, n = inactive

- molecule: "Cc1cc(Cl)c2c(c1)[C@]1(C(=O)N2)N2CCC[C@H]2[C@@H](C(=O)c2cc3ccccc3o2)[C@]12C(=O)Nc1ccccc12"
  class name: "n"
- molecule: "COc1cc(OC)cc(C(=O)Nc2cnc(-c3ccccc3)nc2)c1"
  class name: "n"
- molecule: "CCOc1cc(C2C3=C(CC(C)(C)CC3=O)Nc3onc(C)c32)ccc1O (configuration not stated)"
  class name: "n"
- molecule: "N#C/C(=C\\c1ccc(-c2cc(Cl)ccc2Cl)o1)c1nnc2n1CCCCC2"
  class name: "n"
- molecule: "Cc1cc(C)c(NC(=O)CSc2nc3nccnc3c(=O)n2Cc2ccccc2Cl)c(C)c1"
  class name: "n"
- molecule: "Cc1ccc2c(c1)[C@]1(C(=O)N2)[C@@H](C(=O)c2ccccc2)[C@]2(C(=O)Nc3ccccc32)[C@@H]2CCCN21"
  class name: "y"
- molecule: "O=c1ccc(-c2noc(-c3ccc4cc[nH]c4c3)n2)c[nH]1"
  class name: "n"
- molecule: "FC(F)(F)c1cccc(CSc2ccc3nnc(-c4ccccn4)n3n2)c1"
  class name: "n"
- molecule: "O=S1(=O)NC(=NCCc2ccc(Cl)cc2Cl)c2ccccc21"
  class name: "n"
- molecule: "O=C(Nc1cc(Cl)ccc1-n1cncn1)c1ccc(S(=O)(=O)N2CCCC2)cc1"
  class name: "n"
- molecule: "COc1cc(NC(=O)c2ccc3c(c2)OCO3)ccc1-c1cc2ccccc2oc1=O"
  class name: "n"
- molecule: "CCCC1Cc2c(sc3nc(SCC)nc(N)c23)CO1 (configuration not stated)"
  class name: "y"
- molecule: "Cc1ccc(CNC(=O)Cn2c(=O)n(-c3ccccc3)c3ncccc32)cc1"
  class name: "n"
- molecule: "CC(C)c1cc(Nc2cccc(F)c2)n2nc(-c3cccnc3)nc2n1"
  class name: "n"
- molecule: "CC1=C(c2ccc(F)cc2)S(=O)(=O)N=C1Nc1ccc(Cl)cc1"
  class name: "n"
- molecule: "CCc1nnc(NC(=O)c2nnn(-c3ccccc3Cl)c2C)s1"
  class name: "n"
- molecule: "Cc1ccc(S(=O)(=O)N(C)C)cc1NC(=O)Cc1ccc(Cl)c(Cl)c1"
  class name: "n"
- molecule: "COc1ccc2cc1Oc1cc(ccc1OC)C(O)C13SSC4(C(=O)N1C)C(O)C1=COC=CC(OC2=O)C1N4C3=O (configuration not stated)"
  class name: "n"
- molecule: "NC(=O)CCC(=O)N[C@H]1C[C@H]2CN(Cc3ccccc3)c3ccccc3CN2C1"
  class name: "n"
- molecule: "N#Cc1ccccc1Cn1c(=O)n(CCCCC(=O)NCc2ccco2)c(=O)c2ccccc21"
  class name: "y"
- molecule: "O=C(CNS(=O)(=O)c1ccc(F)cc1)N1CCCC(c2nnc3ccccn23)C1 (configuration not stated)"
  class name: "n"
- molecule: "COc1ccc(OC)c(NC(=O)CSc2nc(C)nc3c2oc2ccccc23)c1"
  class name: "n"
- molecule: "Cc1cc(NCC2CC2)n2nc(Nc3cc(Cl)ccc3C)nc2n1"
  class name: "n"
- molecule: "COC(=O)COc1ccc(/C=N/NC(=O)c2ccc(CN3CCc4ccccc4C3)cc2)cc1"
  class name: "y"
- molecule: "COc1cccc(C(=O)Nc2ccc(-n3cnnn3)cc2)c1"
  class name: "n"
- molecule: "CC1(C)CC(=O)C2=C(C1)Nc1ccccc1N(C(=O)C(F)(F)F)C2c1cccs1 (configuration not stated)"
  class name: "n"
- molecule: "C=C1Nc2ccccc2C(=O)N1c1cccc(NC(=O)c2ccc(C)c(C)c2)c1"
  class name: "n"
- molecule: "CC(CCc1ccccc1)NC(=O)Cn1c(=O)c2cccn2c2ccccc21 (configuration not stated)"
  class name: "y"
- molecule: "COc1ccc(C(=O)Nc2ccc(S(=O)(=O)N3CCCCC3)cc2)cc1"
  class name: "n"
- molecule: "COc1cccc(C(=O)NCc2[nH]nc3ccccc23)c1"
  class name: "n"
- molecule: "COCCCNC(=O)Cn1c(=O)n(Cc2ccc(C(=O)NCc3ccccc3OC)cc2)c(=O)c2ccccc21"
  class name: "n"
- molecule: "NC(=O)c1nnn(-c2ccc(NC(=O)c3ccc(F)c(F)c3)cc2)n1"
  class name: "y"
